Target: WT TALK-2 channels (Homo sapiens, UniProt Q96T54)
Test: Pore blocker inhibition (dose-response, residual currents) in inside-out patches at +40 mV
Type: cell-based
Set-up: expressed in transfected cells; host or cells: Xenopus laevis oocytes (cRNA injection), excised inside-out patches
Conditions: IC50 of TPenA inhibition, 1.0 mM 2-APB, n = 16; legend of Fig. 5e
pIC50: −log10 of the molar value.

| compound | pIC50 |
| --- | --- |
| CCCCC[N+](CCCCC)(CCCCC)CCCCC [TPenA, Tetra-pentyl-ammonium chloride] | 4.27 |

====

Molecular target: WT TALK-2 channels (Homo sapiens, UniProt Q96T54)
Sequence (Q96T54 1-332): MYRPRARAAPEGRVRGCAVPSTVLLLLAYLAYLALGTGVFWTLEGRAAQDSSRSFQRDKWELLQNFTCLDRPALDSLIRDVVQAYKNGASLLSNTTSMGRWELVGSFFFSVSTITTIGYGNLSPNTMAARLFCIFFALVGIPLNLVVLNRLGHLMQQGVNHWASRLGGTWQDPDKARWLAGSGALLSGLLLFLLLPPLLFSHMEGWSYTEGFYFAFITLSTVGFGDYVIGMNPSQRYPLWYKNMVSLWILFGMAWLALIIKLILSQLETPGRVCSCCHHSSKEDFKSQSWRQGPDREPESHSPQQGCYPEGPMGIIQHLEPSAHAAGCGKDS
Assay: Pore blocker inhibition (dose-response, residual currents) in inside-out patches at +40 mV
Format: cell-based
Parameters: expressed in transfected cells; host or cells: Xenopus laevis oocytes (cRNA injection), excised inside-out patches
Conditions: IC50 of TPenA inhibition, 0.2 mM 2-APB, n = 7; legend of Fig. 5e
quantity.kind: IC50 (µM)

| molecule | measured.on | quantitative.readout |
| --- | --- | --- |
| CCCCC[N+](CCCCC)(CCCCC)CCCCC [TPenA, Tetra-pentyl-ammonium chloride] | WT TALK-2 channels (Homo sapiens, UniProt Q96T54) | 778 |
